measured target: T1, human CD1a expressed on cells (human, UniProt P06126 17-327; P61769 21-119)
T1 construct: also called HEK - CD1a; C1R - CD1a
method notes: flow cytometry, C1R cells, 0.316 µg/ml antibody
Hi there, I'd appreciate the recorded Fluorescence Intensity Geomean (normalized to background) for every entry that follows.
I only need the number, in fold over background, no unit after it.

What does the data say about its Fluorescence Intensity Geomean (normalized to background)? Entry: 116 (VR12117) (antibody, V domains shown, also called OX116) VH: QSVEESGGRLVTPGTPLTLTCTVSGFSLSNYAMSWVRQAPGKGLEWIGIIYTTGFTYYASWVKGRFTISKTSTTVDLKITSPTTEDTATYFCARGLATYVSPPTRLDLWGQGTLVTVSS VL: AQVLTQTPSPVSAAVGGTVTINCQASQSIYNSKNLAWYQQKPGQPPKLLIYSASTLASGVPSRFKGSGSGTQFTLTISDLECDDAATYYCQGEFSCSSVDCATFGGGTEVVVK
27.5

What does the data say about its Fluorescence Intensity Geomean (normalized to background)? Entry: 111 (VR12113) (antibody, V domains shown, also called OX111) VH: QSVEESGGRLVTPGTPLTLTCTASGFSLSTYAMSWVRQAPGKGLEWIGIISSSGSTYYASWAKGRFTISKTSTTVDLKITSPTTEDTATYFCARETWYWLDLWGQGTLVTVSS VL: AVEMTQTPASVSAAVGGTVTINCQASEDIYSNLAWYQQKPGQPPKLLIYGASTLASGVPSRFKGSGSGTEYTLTISGVQCDDAATYYCQCAYDSSSYGTPFGGGTEVVVK
28.8

What does the data say about its Fluorescence Intensity Geomean (normalized to background)? Entry: 77A (VR11851) (antibody, V domains shown, also called OX77a; antibody 77a) VH: QSVEESGGRLVTPGTPLTLTCTVSGFSLSSYAMSWVRQAPGKGLEWIGIISSSGTTYYASWAKGRFTISKTSTTVDLKITSPTTEDTATYFCARVDYYSSGWGGLWGPGTLVTVSS VL: AVEMTQTPASMSAAVGGTVTIKCQASEDIYSNLAWYQQKPGQPPKLLIYGASTLASGVPSRFKGSGSGTEYTLTISGVQCDDAATYYCQCTYDTSSYGNTFGGGTEMVVE
19

What does the data say about its Fluorescence Intensity Geomean (normalized to background)? Entry: 110 (VR12112) (antibody, V domains shown, also called OX110; antibody 110) VH: QSVEESGGRLVTPGTPLTLTCTVSGFSLSSYAMIWVRQAPGKGLEWIGIINSSDNTHYATWAKGRFTISKTSTTVDLKITSPTTEDTATYFCARDPYDYGYGWYFDLWGPGTLVTVSS VL: AQVLTQTPSPVSAAVGGTVTINCQASQSVFNNKNLAWYQQKPGQPPKLLIYKASTLASGVSSRFKGSGSGTQFALTISGVQCDDAATYYCQGEFSCSSTDCVTFGGGTEVVVK
29.7
